# Test system: 425362-245-T-J1 tumor spheroids, viability % test/control
# Procedure Summary: Anticancer human tumor 425362-245-T-J1 patient-derived melanoma cell line growth inhibition
# Recorded Conditions: second compound 0.003 µM; first compound 0.1 µM; stronger effect = lower value; spheroids with HUVEC and MSC
Parameter: viability, T/C (%)
Answers are plain numbers, in %.

Illustrative cases are given below, each with its answer.
[2H]c1nc(C)nc([2H])c1-c1cc(NC[C@@H](C)c2cccc3c(C(=O)NC)ccnc23)ncn1 + CC[C@@]1(O)C(=O)OCc2c1cc1n(c2=O)Cc2cc3c(CN(C)C)c(O)ccc3nc2-1: 83.5
Cc1cc(C)c(CNC(=O)c2cc(-c3ccc(CN4CCOCC4)cc3)cc3c2cnn3C2CCCC2)c(=O)[nH]1 + CC[C@@]1(O)C(=O)OCc2c1cc1n(c2=O)Cc2cc3c(CN(C)C)c(O)ccc3nc2-1: 81.8
[2H]c1nc(C)nc([2H])c1-c1cc(NC[C@@H](C)c2cccc3c(C(=O)NC)ccnc23)ncn1 + COc1cc2c(cc1O)CCNC21CSC2c3c(OC(C)=O)c(C)c4c(c3C(COC1=O)N1C(O)C3Cc5cc(C)c(OC)c(O)c5C(C21)N3C)OCO4: 0.2
CC(C)n1c(=O)n(C)c2cnc3cc(F)c(-c4ccc(OCCCN5CCCCC5)nc4)cc3c21 + COc1cc2c(cc1O)CCNC21CSC2c3c(OC(C)=O)c(C)c4c(c3C(COC1=O)N1C(O)C3Cc5cc(C)c(OC)c(O)c5C(C21)N3C)OCO4: 0.19

Let's switch to this compound now.
Req: Report viability, T/C for Cc1cc(C)c(CNC(=O)c2cc(-c3ccc(CN4CCOCC4)cc3)cc3c2cnn3C2CCCC2)c(=O)[nH]1 + COc1cc2c(cc1O)CCNC21CSC2c3c(OC(C)=O)c(C)c4c(c3C(COC1=O)N1C(O)C3Cc5cc(C)c(OC)c(O)c5C(C21)N3C)OCO4
Resp: 0.32

====

# System: 425362-245-T-J1 tumor spheroids, viability % test/control
# Procedure Summary: Anticancer human tumor 425362-245-T-J1 cell line growth inhibition;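 further: spheroids exposed to agents for 7 days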
# Recorded Conditions: curve of first compound; second compound 100 µM; spheroids with HUVEC and MSC
Parameter: IC50

CC1COCCN1c1cc(-c2ccnn2C)c2ccnc(-c3ccn[nH]3)c2n1 (stereo not drawn) + Cn1nnc2c(C(N)=O)ncn2c1=O: < 0.0316 µM

Could you tell me IC50 for each of these compounds? They are listed below.
1. COc1cc(C)[nH]c(=O)c1CN1CCc2c(Cl)cc(C(OC)C3COC3)c(Cl)c2C1=O (stereo not drawn) + Cn1nnc2c(C(N)=O)ncn2c1=O
2. CNCc1ccc(-c2cc(-c3nc(-c4ccc(S(=O)(=O)C(C)C)cc4)cnc3N)on2)cc1 + Cn1nnc2c(C(N)=O)ncn2c1=O

Resp:
["> 10 µM", "0.0637 µM"]

====

Please respond with reported viability, T/C for every item in the list.
# Tested on: 425362-245-T-J1 tumor spheroids, viability % test/control
# Procedure Summary: Anticancer human tumor 425362-245-T-J1 cell line growth inhibition;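 further: spheroids exposed to agents for 7 days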;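 on viability, T/C: 100% = DMSO vehicle control viability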
# Recorded Conditions: second compound 0.00949 µM; first compound 0.0316 µM; stronger effect = lower value; spheroids with HUVEC and MSC
Answers are plain numbers, in %.

Illustrative cases are given below, each with its answer.
CC1COCCN1c1cc(-c2ccnn2C)c2ccnc(-c3ccn[nH]3)c2n1 (stereo not drawn) + CC[C@@]1(O)C(=O)OCc2c1cc1n(c2=O)Cc2cc3c(CN(C)C)c(O)ccc3nc2-1: 14.2
COc1ccc([C@@H](O)c2cc(-c3ncnc4cc(N5CCOCC5)ccc34)c(F)cc2Cl)nn1 + CC[C@@]1(O)C(=O)OCc2c1cc1n(c2=O)Cc2cc3c(CN(C)C)c(O)ccc3nc2-1: 89.7

Let's switch to this compound now.
Req: Report viability, T/C for [2H]c1nc(C)nc([2H])c1-c1cc(NC[C@@H](C)c2cccc3c(C(=O)NC)ccnc23)ncn1 + CC[C@@]1(O)C(=O)OCc2c1cc1n(c2=O)Cc2cc3c(CN(C)C)c(O)ccc3nc2-1
Resp: 76.2

====

# Test system: 425362-245-T-J1 tumor spheroids, viability % test/control
# Procedure Summary: Anticancer human tumor 425362-245-T-J1 cell line growth inhibition;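 further: spheroids exposed to agents for 7 days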
# Recorded Conditions: curve of first compound; second compound 0.00949 µM; spheroids with HUVEC and MSC
# Method: Multicellular complex tumor spheroid response to DNA repair inhibitors in combination with DNA-damaging drugs This study explores the anticancer activities of DNA-damaging drugs and inhibitors of DNA damage repair, both as single agents and in combinations. […] Twenty-six patient-derived or established malignant cell lines were evaluated representing sarcoma, melanoma, small cell lung cancer (SCLC), non-small cell lung cancer (NSCLC), as well as bladder, ovarian and pancreatic cancers. […]
Please respond with reported IC50 for every item in the list.

Illustrative cases are given below, each with its answer.
[2H]c1nc(C)nc([2H])c1-c1cc(NC[C@@H](C)c2cccc3c(C(=O)NC)ccnc23)ncn1 + CC[C@@]1(O)C(=O)OCc2c1cc1n(c2=O)Cc2cc3c(CN(C)C)c(O)ccc3nc2-1: 3.59 µM
COc1cc(C)[nH]c(=O)c1CN1CCc2c(Cl)cc(C(OC)C3COC3)c(Cl)c2C1=O (stereo not drawn) + CC[C@@]1(O)C(=O)OCc2c1cc1n(c2=O)Cc2cc3c(CN(C)C)c(O)ccc3nc2-1: > 10 µM

Req: Report IC50 for Cc1cc(C)c(CNC(=O)c2cc(-c3ccc(CN4CCOCC4)cc3)cc3c2cnn3C2CCCC2)c(=O)[nH]1 + CC[C@@]1(O)C(=O)OCc2c1cc1n(c2=O)Cc2cc3c(CN(C)C)c(O)ccc3nc2-1
Resp: 1.96 µM

====

# System: 425362-245-T-J1 tumor spheroids, viability % test/control
# Procedure Summary: Anticancer human tumor 425362-245-T-J1 cell line growth inhibition; active = viability on the fitted dose curve at most 10% of control; inactive = the rest;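 further: spheroids exposed to agents for 7 days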
# Recorded Conditions: second compound 0.0003 µM; first compound 0.0316 µM; spheroids with HUVEC and MSC
Hi! Could you answer with just one of these? True (active), False (inactive)

CC(C)n1c(=O)n(C)c2cnc3cc(F)c(-c4ccc(OCCCN5CCCCC5)nc4)cc3c21 + COc1cc2c(cc1O)CCNC21CSC2c3c(OC(C)=O)c(C)c4c(c3C(COC1=O)N1C(O)C3Cc5cc(C)c(OC)c(O)c5C(C21)N3C)OCO4: True

Req: Recorded test outcome, item Cc1cc(C)c(CNC(=O)c2cc(-c3ccc(CN4CCOCC4)cc3)cc3c2cnn3C2CCCC2)c(=O)[nH]1 + COc1cc2c(cc1O)CCNC21CSC2c3c(OC(C)=O)c(C)c4c(c3C(COC1=O)N1C(O)C3Cc5cc(C)c(OC)c(O)c5C(C21)N3C)OCO4
Resp: False

Req: Recorded test outcome, item CC1COCCN1c1cc(-c2ccnn2C)c2ccnc(-c3ccn[nH]3)c2n1 (stereo unspecified) + COc1cc2c(cc1O)CCNC21CSC2c3c(OC(C)=O)c(C)c4c(c3C(COC1=O)N1C(O)C3Cc5cc(C)c(OC)c(O)c5C(C21)N3C)OCO4
Resp: True

Req: Recorded test outcome, item [2H]c1nc(C)nc([2H])c1-c1cc(NC[C@@H](C)c2cccc3c(C(=O)NC)ccnc23)ncn1 + COc1cc2c(cc1O)CCNC21CSC2c3c(OC(C)=O)c(C)c4c(c3C(COC1=O)N1C(O)C3Cc5cc(C)c(OC)c(O)c5C(C21)N3C)OCO4
Resp: False

Req: Recorded test outcome, item COc1ccc([C@@H](O)c2cc(-c3ncnc4cc(N5CCOCC5)ccc34)c(F)cc2Cl)nn1 + COc1cc2c(cc1O)CCNC21CSC2c3c(OC(C)=O)c(C)c4c(c3C(COC1=O)N1C(O)C3Cc5cc(C)c(OC)c(O)c5C(C21)N3C)OCO4
Resp: False

Req: Recorded test outcome, item COc1cc(C)[nH]c(=O)c1CN1CCc2c(Cl)cc(C(OC)C3COC3)c(Cl)c2C1=O (stereo unspecified) + COc1cc2c(cc1O)CCNC21CSC2c3c(OC(C)=O)c(C)c4c(c3C(COC1=O)N1C(O)C3Cc5cc(C)c(OC)c(O)c5C(C21)N3C)OCO4
Resp: False

====

# Tested on: 425362-245-T-J1 tumor spheroids, viability % test/control
# Procedure Summary: Anticancer human tumor 425362-245-T-J1 cell line growth inhibition;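 further: spheroids exposed to agents for 7 days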
# Recorded Conditions: curve of first compound; second compound 0.0949 µM; spheroids with HUVEC and MSC
Please respond with reported IC50 for every item in the list.

Illustrative cases are given below, each with its answer.
[2H]c1nc(C)nc([2H])c1-c1cc(NC[C@@H](C)c2cccc3c(C(=O)NC)ccnc23)ncn1 + CC[C@@]1(O)C(=O)OCc2c1cc1n(c2=O)Cc2cc3c(CN(C)C)c(O)ccc3nc2-1: < 0.0316 µM
COc1ccc([C@@H](O)c2cc(-c3ncnc4cc(N5CCOCC5)ccc34)c(F)cc2Cl)nn1 + CC[C@@]1(O)C(=O)OCc2c1cc1n(c2=O)Cc2cc3c(CN(C)C)c(O)ccc3nc2-1: < 0.0316 µM
Cc1sc2c(c1C)C(c1ccc(Cl)cc1)=NC(CC(=O)Nc1ccc(O)cc1)c1nnc(C)n1-2 (configuration not stated) + CC[C@@]1(O)C(=O)OCc2c1cc1n(c2=O)Cc2cc3c(CN(C)C)c(O)ccc3nc2-1: < 0.00949 µM
COc1cc(C)[nH]c(=O)c1CN1CCc2c(Cl)cc(C(OC)C3COC3)c(Cl)c2C1=O (configuration not stated) + CC[C@@]1(O)C(=O)OCc2c1cc1n(c2=O)Cc2cc3c(CN(C)C)c(O)ccc3nc2-1: < 0.0316 µM
Cc1cc(C)c(CNC(=O)c2cc(-c3ccc(CN4CCOCC4)cc3)cc3c2cnn3C2CCCC2)c(=O)[nH]1 + CC[C@@]1(O)C(=O)OCc2c1cc1n(c2=O)Cc2cc3c(CN(C)C)c(O)ccc3nc2-1: < 0.0316 µM

Could you tell me IC50 for each of these compounds? They are listed below.
1. CNCc1ccc(-c2cc(-c3nc(-c4ccc(S(=O)(=O)C(C)C)cc4)cnc3N)on2)cc1 + CC[C@@]1(O)C(=O)OCc2c1cc1n(c2=O)Cc2cc3c(CN(C)C)c(O)ccc3nc2-1
2. CC1COCCN1c1cc(-c2ccnn2C)c2ccnc(-c3ccn[nH]3)c2n1 (configuration not stated) + CC[C@@]1(O)C(=O)OCc2c1cc1n(c2=O)Cc2cc3c(CN(C)C)c(O)ccc3nc2-1

Resp:
1: < 0.00949 µM; 2: < 0.0316 µM
